System: Plasmodium berghei
PROCEDURE TEXT: Screen against P. berghei liver stage (PbLuc), transformed with Luciferase, at 10uM
Assay type: functional, HepG2
PARTICULARS: tested at 10 uM
In all, about 69,000 compounds went through this assay and about 8,600 (12%) showed an effect of 50% or more. This excerpt belongs to a sample that is enriched for strong results.
Listing of entries alongside the reported INHIBITION.
PROPERTY MEASURED: INHIBITION

[[record]]
compound = "COc1ccccc1OCCCn1c(C)c(C)oc1=O"
measured_on = "Plasmodium berghei"
recorded_measurement = "-10.2%"

[[record]]
compound = "OCCn1nccc1C1CCN(CCOc2cccc(F)c2)CC1"
measured_on = "Plasmodium berghei"
recorded_measurement = "31.9%"

[[record]]
compound = "Cc1cccc(-n2cnnc2CCCN2CCOCC2)c1"
measured_on = "Plasmodium berghei"
recorded_measurement = "34.4%"

[[record]]
compound = "Clc1cc(N2CCN3CCCCC3C2)nc2[nH]ccc12 (stereo not given)"
measured_on = "Plasmodium berghei"
recorded_measurement = "72.2%"

[[record]]
compound = "Clc1cc(N2CCC(N3CCCC3)CC2)nc2[nH]ccc12"
measured_on = "Plasmodium berghei"
recorded_measurement = "51.5%"

[[record]]
compound = "CCN1CCC2(CC1)CC(COC)N(Cc1csc(C)n1)C2 (stereo not given)"
measured_on = "Plasmodium berghei"
recorded_measurement = "8.85%"

[[record]]
compound = "COCC1CC2(CCN(C(C)=O)CC2)CN1Cc1csc(C)n1 (stereo not given)"
measured_on = "Plasmodium berghei"
recorded_measurement = "79.6%"

[[record]]
compound = "CNc1nc(CNC(=O)Nc2cccc(Cl)c2OC)cs1"
measured_on = "Plasmodium berghei"
recorded_measurement = "3.263%"

[[record]]
compound = "Cc1c(Br)c(C(=O)NC(C)c2ccccc2)nn1C (stereo not given)"
measured_on = "Plasmodium berghei"
recorded_measurement = "-38.2%"

[[record]]
compound = "COc1c(Cl)cccc1NCc1csc(C)n1"
measured_on = "Plasmodium berghei"
recorded_measurement = "-1.37%"

[[record]]
compound = "COCC1CC2(CCN(Cc3nccs3)CC2)CN1Cc1ccccn1 (stereo not given)"
measured_on = "Plasmodium berghei"
recorded_measurement = "71.1%"

[[record]]
compound = "Fc1cccc(OC2CCN(CCn3cc4ccccc4n3)CC2)c1"
measured_on = "Plasmodium berghei"
recorded_measurement = "75.2%"

[[record]]
compound = "c1cncc(OC2CCN(CCn3cc4ccccc4n3)CC2)c1"
measured_on = "Plasmodium berghei"
recorded_measurement = "50.8%"

[[record]]
compound = "O=C(Nc1ccccc1)N1CC(C(=O)N2CCCC2)C2(CCOCC2)C1 (stereo not given)"
measured_on = "Plasmodium berghei"
recorded_measurement = "-9.71%"

[[record]]
compound = "CCOc1cc(=O)n2c(c1C(=O)OCc1ccc(C)cc1)CCCC2"
measured_on = "Plasmodium berghei"
recorded_measurement = "32.2%"

[[record]]
compound = "COCc1ccccc1NCc1csc(NC(C)=O)n1"
measured_on = "Plasmodium berghei"
recorded_measurement = "89%"

[[record]]
compound = "Cc1cccc(OCCC(=O)NCC2CN(C)CCO2)c1C (stereo not given)"
measured_on = "Plasmodium berghei"
recorded_measurement = "-36.85%"

[[record]]
compound = "COc1ncccc1CNC(=O)Nc1cccnc1N1CCCC1"
measured_on = "Plasmodium berghei"
recorded_measurement = "43.3%"

[[record]]
compound = "CCOCC(O)CN1CCN(C(=O)C2CCC2)CC1 (stereo not given)"
measured_on = "Plasmodium berghei"
recorded_measurement = "-14.6%"

[[record]]
compound = "Cc1ccc([C@H]2CN(CCO)C[C@@H]2NC(=O)CN2CCCCC2=O)o1"
measured_on = "Plasmodium berghei"
recorded_measurement = "4.93%"

[[record]]
compound = "CCc1ncc(CN2CCC(Oc3ccccc3OC)CC2)cn1"
measured_on = "Plasmodium berghei"
recorded_measurement = "-40%"

[[record]]
compound = "CNC(=O)c1cc(C)n(-c2ccccc2)n1"
measured_on = "Plasmodium berghei"
recorded_measurement = "36.2%"

[[record]]
compound = "Cc1cccc(CN2C(=O)CCC23CCN(C(=O)c2ccco2)CC3)n1"
measured_on = "Plasmodium berghei"
recorded_measurement = "-24.5%"

[[record]]
compound = "Cc1nc(CN(C)C2CCN(Cc3nc(C4CC4)no3)C2)no1 (stereo not given)"
measured_on = "Plasmodium berghei"
recorded_measurement = "40.9%"

[[record]]
compound = "COCC1CC2(CCN(C(N)=O)CC2)CN1Cc1csc(C)n1 (stereo not given)"
measured_on = "Plasmodium berghei"
recorded_measurement = "41%"

